Molecular target: UniProt P32246
Sequence (P32246 1-355): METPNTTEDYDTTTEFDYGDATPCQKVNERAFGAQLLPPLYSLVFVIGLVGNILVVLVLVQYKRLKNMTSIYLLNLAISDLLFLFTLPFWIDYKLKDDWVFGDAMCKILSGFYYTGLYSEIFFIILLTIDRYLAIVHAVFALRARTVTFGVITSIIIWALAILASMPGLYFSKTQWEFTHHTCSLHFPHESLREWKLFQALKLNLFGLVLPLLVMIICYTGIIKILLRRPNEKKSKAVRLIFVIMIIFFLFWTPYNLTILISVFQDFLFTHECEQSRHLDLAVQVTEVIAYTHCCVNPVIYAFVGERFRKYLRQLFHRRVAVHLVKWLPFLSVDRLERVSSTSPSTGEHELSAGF
Assay: In vitro Ca2+-flux assay on human monocytes (THP-1), MIP-1α stimulated
Details: block of MIP-1α induced Ca2+-flux in THP-1 cells; 2,5-dimethylpiperazine derivatives tested as racemic mixtures
readout.type: pIC50
Scale for pIC50: -log10 of concentration given in mol/L; no unit attached.

INPUT: Dear colleague, please send me the reported pIC50 for C[C@@H]1CN(C(=O)c2cc3cc(Br)ccc3o2)[C@@H](C)CN1Cc1ccc(F)cc1 (racemic) when you can.
OUTPUT: 7.92

INPUT: Indicate its recorded pIC50; the molecule in question is Cc1ccc2cc(C(=O)N3C[C@@H](C)N(Cc4ccc(F)cc4)C[C@@H]3C)oc2c1 (racemic)
OUTPUT: 7.70

INPUT: Find the measured pIC50 of C[C@@H]1CN(C(=O)c2cc3cc(Cl)c(Cl)cc3[nH]2)[C@@H](C)CN1Cc1ccc(F)cc1 (racemic) and report it.
OUTPUT: 7.82
